Values were extracted from the RNAGym collection of RNA variant scans (doi:10.1021/acssynbio.7b00057).

B1: Pistol ribozyme (parent)
chain: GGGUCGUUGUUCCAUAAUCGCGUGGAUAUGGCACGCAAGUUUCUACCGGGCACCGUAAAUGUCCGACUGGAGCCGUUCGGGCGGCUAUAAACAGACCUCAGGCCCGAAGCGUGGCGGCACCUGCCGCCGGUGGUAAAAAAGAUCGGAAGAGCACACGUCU

# Variants of: B1
# Measurement description: aptazyme ON/OFF ratio, guanine; higher = stronger switching; co-transcriptional cleavage with and without guanine
Parameter: aptazyme ON/OFF ratio
// no unit, no text: just the number

* U8A U11A C12U C13U | 1.18
* U8C G9A U10C U11G C12U C13G | 1.15
* U7G U8C G9A U10C U11G C12A C13U | 1.16

GET /value?item= G9A U10C U11A C13A &field=aptazyme ON/OFF ratio returns 1.41

GET /value?item= U7C G9U U10C U11A C13A &field=aptazyme ON/OFF ratio returns 1.1

GET /value?item= U7A G9C U10C U11G C12A C13A &field=aptazyme ON/OFF ratio returns 1.04

GET /value?item= U7A U8A G9U U11G C13U &field=aptazyme ON/OFF ratio returns 1.16

GET /value?item= U7C U8C G9C U10G U11A C12A C13G &field=aptazyme ON/OFF ratio returns 1.11

GET /value?item= U7G G9A U10A U11A C12U C13A &field=aptazyme ON/OFF ratio returns 1.12

GET /value?item= U7G G9A U10A U11C C13A &field=aptazyme ON/OFF ratio returns 1.09

GET /value?item= U7C G9C U10C U11A C13U &field=aptazyme ON/OFF ratio returns 1.03
